Values from the supplement of paper PMC7411054

# System: A549-GM130-SQSTM1
# assayDetails: phenotypically active (imaging signature differs from DMSO and reproducible) at any of 0.3-9 uM (binary (1 = active, 0 = inactive)); higher = active
# measurementParameters: treatment time: 24 h
Structures can show the parent of a compound that is named as a salt.
Outcome field: choose from 1.0 (active), 0.0 (inactive)

For orientation, consider the following solved cases.
| compound | assignedClass |
| --- | --- |
| c1ccc2c(c1)CN1CCCC1=N2 [Desoxypeganine Hydrochloride] | 0.0 |
| O[C@H](CNC[C@H](O)[C@@H]1CCc2cc(F)ccc2O1)[C@@H]1CCc2cc(F)ccc2O1 | 1.0 |
| CC(C)C[C@H](NC(=O)OCC1c2ccccc2-c2ccccc21)C(=O)O | 0.0 |
| O=S(=O)(c1cccc2c(O)nccc12)N1CCCNCC1 [HA 1100 hydrochloride] | 0.0 |
| O=C(Nc1cccnn1)N1CCN(c2nccc(-c3ccc(F)c(F)c3)n2)CC1 | 0.0 |

Query :: I'd appreciate the recorded outcome for O=c1[nH]cnc2[nH]ncc12 from this test.
Result :: 0.0

Query :: I'd appreciate the recorded outcome for COc1ccc(C2=N[C@H](c3ccc(Cl)cc3)[C@H](c3ccc(Cl)cc3)N2C(=O)N2CCNC(=O)C2)c(OC(C)C)c1 from this test.
Result :: 0.0

Query :: I'd appreciate the recorded outcome for C[N+]1(C)CCC(=C(c2ccccc2)c2ccccc2)CC1 from this test.
Result :: 0.0

Query :: I'd appreciate the recorded outcome for CC[N+](CC)(CCNC(=O)C(=O)NCC[N+](CC)(CC)Cc1ccccc1Cl)Cc1ccccc1Cl from this test.
Result :: 0.0

Query :: I'd appreciate the recorded outcome for Nn1nnc2ccccc21 from this test.
Result :: 0.0

Query :: I'd appreciate the recorded outcome for NS(=O)(=O)c1cc2c(cc1Cl)NC(C1CC3C=CC1C3)NS2(=O)=O (configuration not stated) [cyclothiazide] from this test.
Result :: 0.0

Query :: I'd appreciate the recorded outcome for CC(=O)S[C@@H]1CC2=CC(=O)CC[C@]2(C)[C@H]2CC[C@@]3(C)[C@@H](CC[C@@]34CCC(=O)O4)[C@H]12 from this test.
Result :: 0.0

Query :: I'd appreciate the recorded outcome for O=C(NOC[C@H](O)CO)c1ccc(F)c(F)c1Nc1ccc(I)cc1F from this test.
Result :: 1.0

Query :: I'd appreciate the recorded outcome for O=C(NCCO)c1cc(C(=O)NCCO)cc(C(=O)NCCO)c1 from this test.
Result :: 0.0

Query :: I'd appreciate the recorded outcome for CC1(C)CC(=O)c2c(S(C)(=O)=O)sc(Cl)c2C1 from this test.
Result :: 0.0

Query :: I'd appreciate the recorded outcome for COC(=O)Nc1nc2ccc(C(=O)c3cccs3)cc2[nH]1 from this test.
Result :: 1.0

Query :: I'd appreciate the recorded outcome for NCCC(=O)NCCc1c[nH]cn1 from this test.
Result :: 0.0

###

Examples of compounds with documented phenotypically active follow.
# System: WPMY1-GM130-SQSTM1
# assayDetails: phenotypically active (imaging signature differs from DMSO and reproducible) at any of 0.3-9 uM (binary (1 = active, 0 = inactive)); higher = active
# measurementParameters: treatment time: 24 h
Where a name gives a salt, the structure may show the parent alone.

| compound | phenotypically active |
| --- | --- |
| COc1ccc(N(C)c2nc(C)nc3ccccc23)cc1 [MPC 6827 hydrochloride] | 1 (active) |

Query :: Item CCCCCCCCCCCCCCCC(=O)C(F)(F)F has what recorded phenotypically active?
Result :: 0 (inactive)
